Target: prothrombin (Homo sapiens, UniProt P00734 P00734:44-622)
Experiment: filter; 50 nM prothrombin
Conditions: tags: Athens Research
Label MET when binding signal is at or above 20 % bound; otherwise label NOT MET.

Use the examples below as a reference point.
1) TCCCTGCAATCGGTGCTCGAGAGGTTGGGTGGGTGGCTGAGGATCGATC (ssDNA) [AMX(398)_C12] = NOT MET
2) TCCCATCGGTCCGGGGTAATTTACTGGGTCGGGTGGCTGAGGATCGATC (ssDNA) [AMX(398)_A8] = MET
3) TCCCATCGAGCCGGGTATGTTTCGTTGGGCTGGGTGGCTGAGGATCGATC (ssDNA) [AMX(399)_E5] = NOT MET
4) TCCCGTTCGGTCCGTATACTGGTGGTGGTTGGGTGGCTGAGGATCGATC (ssDNA) [AMX(399)_F4] = MET

# evaluate next
Request: Determine whether this binder has binding signal no lower than 20 % bound: TCCCGTCGGTCCGTTCGGTATTTTTTTCTGGGTGGCTGAGGATCGATC (ssDNA) [AMX(399)_F10]
Result: MET
